Hey, just so you know, these numbers are from PubChem BioAssay AID194.

For each record, write down the corresponding T/C.
# Test system: BDF1 mice, B16 melanoma s.c., survival/tumor T/C
# ASSAY TEXT: NCI In Vivo Anticancer Drug Screen. Data for tumor model B16 Melanoma (subcutaneous) in B6D2F1 (BDF1) mice
# TEST CONTEXT: endpoint: median survival time; dose: 4.0 mg/kg/injection; schedule: Q01DX009 (ip); vehicle: Klucel (hydroxypropylcellulose) (HPC); higher = longer survival
Inconclusive results are not listed.

Return reported T/C values for all items listed beneath this line.
1. ClC1=NC(Cl)C(Cl)=N/C1=N\c1ncn[nH]1 (stereo not given)
2. O=C(O)CCCc1ccc(N(CCCl)CCCl)cc1
3. CC(=O)O[C@H]1C(=O)[C@@]2(C)[C@H]([C@H](OC(=O)c3ccccc3)[C@]3(O)C[C@H](OC(=O)[C@H](O)[C@@H](NC(=O)c4ccccc4)c4ccccc4)C(C)=C1C3(C)C)[C@]1(OC(C)=O)CO[C@@H]1C[C@@H]2O
4. Cn1ncc2c(N)ncnc21

Outgoing:
106 % of control
121 % of control
93 % of control
106 % of control

Incoming: Which T/C reading was recorded for the compound FC(F)c1nc2nc(Cl)c(Cl)nc2[nH]1 ?
Outgoing: 114 % of control

----------
# System: BDF1 mice, B16 melanoma s.c., survival/tumor T/C
# ASSAY TEXT: NCI In Vivo Anticancer Drug Screen. Data for tumor model B16 Melanoma (subcutaneous) in B6D2F1 (BDF1) mice
# TEST CONTEXT: endpoint: median survival time; dose: 100.0 mg/kg/injection; schedule: Q04DX003 (ip); vehicle: saline; higher = longer survival
Inconclusive results are not listed.
For each record, write down the corresponding T/C.

C[C@H](CN1CC(=O)NC(=O)C1)N1CC(=O)NC(=O)C1
115 % of control
CC1(C)N=C(N)N=C(N)N1c1ccc(CNC(=O)Nc2cccc(S(=O)(=O)F)c2)cc1
100 % of control
Cc1cc(NC(=O)NCc2ccc(N3C(N)=NC(N)=NC3(C)C)cc2)ccc1S(=O)(=O)F
95 % of control
CC1(C)N=C(N)N=C(N)N1c1ccc(OCCOc2ccc(S(=O)(=O)F)cc2)c(Cl)c1
109 % of control
C[C@@H](CN1CC(=O)NC(=O)C1)N1CC(=O)NC(=O)C1
119 % of control

Now turn to the next compound.
Incoming: Which T/C reading was recorded for the compound CC1(C)N=C(N)N=C(N)N1c1ccc(OCC(=O)Nc2ccc(S(=O)(=O)F)cc2)c(Cl)c1 ?
Outgoing: 113 % of control

----------
For each record, write down the corresponding T/C.
# Test system: BDF1 mice, B16 melanoma s.c., survival/tumor T/C
# ASSAY TEXT: NCI In Vivo Anticancer Drug Screen. Data for tumor model B16 Melanoma (subcutaneous) in B6D2F1 (BDF1) mice
# TEST CONTEXT: endpoint: median survival time; dose: 0.25 mg/kg/injection; schedule: Q01DX009 (ip); vehicle: saline; higher = longer survival
Records with an inconclusive call do not appear.

Study these solved cases before continuing.
Nc1ncnc2c1ccn2C1OC(CO)C(O)C1O (stereo not given)
111 % of control
NC(=O)c1[nH]nc(C2OC(CO)C(O)C2O)c1O (stereo not given)
109 % of control
CO[C@H](C(=O)[C@@H](O)[C@@H](C)O)[C@@H]1Cc2cc3cc(OC4CC(OC5CC(O)C(O)C(C)O5)C(O)C(C)O4)c(C)c(O)c3c(O)c2C(=O)[C@H]1OC1CC(OC2CC(OC3CC(C)(O)C(O)C(C)O3)C(O)C(C)O2)C(O)C(C)O1 (stereo not given in full)
114 % of control
CC[C@](O)(C(=O)O)c1cc2n(c(=O)c1CO)Cc1cc3ccccc3nc1-2
102 % of control

Now turn to the next compound.
Incoming: Which T/C reading was recorded for the compound CCC(=O)OCC(=O)[C@]1(O)Cc2c(O)c3c(c(O)c2[C@@H](OC2CC(N)C(O)C(C)O2)C1)C(=O)c1c(OC)cccc1C3=O (stereo not given in full) ?
Outgoing: 90 % of control

----------
# Tested on: BDF1 mice, B16 melanoma s.c., survival/tumor T/C
# ASSAY TEXT: NCI In Vivo Anticancer Drug Screen. Data for tumor model B16 Melanoma (subcutaneous) in B6D2F1 (BDF1) mice
# TEST CONTEXT: endpoint: median survival time; dose: 0.5 mg/kg/injection; schedule: Q01DX009 (ip); vehicle: saline; higher = longer survival
Results filed as inconclusive are left out.
MEASURE: T/C

Study these solved cases before continuing.
CC[CH2][Sn]([CH2]CC)([CH2]CC)[O][Sn]([CH2]CC)([CH2]CC)[CH2]CC
123 % of control
Nc1ncn(C2OC(CO)C(O)C2O)c(=O)n1 (stereo not given)
87 % of control
CC[C@](O)(C(=O)O)c1cc2n(c(=O)c1CO)Cc1cc3ccccc3nc1-2
102 % of control
O=C1c2ccccc2C(=O)c2c(NCCNCCO)ccc(NCCNCCO)c21
111 % of control
CCC(=O)OCC(=O)[C@]1(O)Cc2c(O)c3c(c(O)c2[C@@H](OC2CC(N)C(O)C(C)O2)C1)C(=O)c1c(OC)cccc1C3=O (stereo not given in full)
118 % of control

Return reported T/C values for all items listed beneath this line.
1. Nc1ncnc2c1ccn2C1OC(CO)C(O)C1O (stereo not given)
2. NC(=O)c1[nH]nc(C2OC(CO)C(O)C2O)c1O (stereo not given)
3. CO[C@H](C(=O)[C@@H](O)[C@@H](C)O)[C@@H]1Cc2cc3cc(OC4CC(OC5CC(O)C(O)C(C)O5)C(O)C(C)O4)c(C)c(O)c3c(O)c2C(=O)[C@H]1OC1CC(OC2CC(OC3CC(C)(O)C(O)C(C)O3)C(O)C(C)O2)C(O)C(C)O1 (stereo not given in full)
4. O=NN(CCCl)C(=O)NCCCl
5. CN(C)CCCN1c2ccccc2Sc2ccc(Cl)cc21

Outgoing:
106 % of control
106 % of control
116 % of control
100 % of control
97 % of control

----------
# System: BDF1 mice, B16 melanoma s.c., survival/tumor T/C
# ASSAY TEXT: NCI In Vivo Anticancer Drug Screen. Data for tumor model B16 Melanoma (subcutaneous) in B6D2F1 (BDF1) mice
# TEST CONTEXT: endpoint: median survival time; dose: 50.0 mg/kg/injection; schedule: Q01DX009 (ip); vehicle: saline with Tween-80; higher = longer survival
Inconclusive results are not listed.
For each record, write down the corresponding T/C.

N/C(=N\Cl)C(Cl)(Cl)Cl
94 % of control
O=C(O)CCNSc1ccccc1[N+](=O)[O-]
114 % of control

Now turn to the next molecule.
Incoming: Which T/C reading was recorded for the molecule CS(=O)(=O)OCCCCOS(C)(=O)=O ?
Outgoing: 100 % of control

----------
# Test system: BDF1 mice, B16 melanoma s.c., survival/tumor T/C
# ASSAY TEXT: NCI In Vivo Anticancer Drug Screen. Data for tumor model B16 Melanoma (subcutaneous) in B6D2F1 (BDF1) mice
# TEST CONTEXT: endpoint: median survival time; dose: 2.0 mg/kg/injection; schedule: Q01DX009 (ip); vehicle: Klucel (hydroxypropylcellulose) (HPC)
Inconclusive results are not listed. The calls were made as follows: active = survival T/C of 150% or more; inactive = T/C below 125% in these data.
Outcome field: choose from 1 for active, -1 for inactive

Incoming: Which outcome was assigned to COC12C(COC(N)=O)C3=C(C(=O)C(C)=C(N)C3=O)N1CC1C2N1C (stereo not given) in this test?
Outgoing: -1

Incoming: Now consider Cn1ncc2c(N)ncnc21 .
Outgoing: -1

----------
# Tested on: BDF1 mice, B16 melanoma s.c., survival/tumor T/C
# ASSAY TEXT: NCI In Vivo Anticancer Drug Screen. Data for tumor model B16 Melanoma (subcutaneous) in B6D2F1 (BDF1) mice
# TEST CONTEXT: endpoint: median survival time; dose: 10.0 mg/kg/injection; schedule: Q01DX009 (ip); vehicle: saline; higher = longer survival
Results filed as inconclusive are left out.
MEASURE: T/C

Study these solved cases before continuing.
O=c1[nH]c(=O)n(C2CC(O)C(CO)O2)cc1C(F)(F)F (stereo unspecified)
103 % of control
CNc1ncnc2c1cnn2C
92 % of control
CN[C@H]1CCc2cc(OC)c(OC)c(OC)c2-c2ccc(OC)c(=O)cc21
111 % of control
CS(=O)(=O)OCCCNCCCOS(C)(=O)=O
110 % of control
O=CC(NC(=O)N(CCCl)N=O)C(O)C(O)C(O)CO (stereo unspecified)
122 % of control

Now turn to the next molecule.
Incoming: Lab note: need T/C with BDF1 mice, B16 melanoma s.c., survival/tumor T/C for entry Cn1c(CCCC(=O)O)nc2cc(N(CCCl)CCCl)ccc21 , please look it up.
Outgoing: 96 % of control

----------
# Tested on: BDF1 mice, B16 melanoma s.c., survival/tumor T/C
# ASSAY TEXT: NCI In Vivo Anticancer Drug Screen. Data for tumor model B16 Melanoma (subcutaneous) in B6D2F1 (BDF1) mice
# TEST CONTEXT: endpoint: median survival time; dose: 12.5 mg/kg/injection; schedule: Q01DX009 (ip); vehicle: saline with Tween-80; higher = longer survival
Results filed as inconclusive are left out.
For each record, write down the corresponding T/C.

Study these solved cases before continuing.
N/C(=N\Cl)C(Cl)(Cl)Cl
98 % of control
O=C(O)CCNSc1ccccc1[N+](=O)[O-]
105 % of control
CC(NSc1ccccc1[N+](=O)[O-])C(=O)O (stereo not given)
109 % of control
Cc1[nH]nc(-c2ccon2)c1N=O
91 % of control

Now turn to the next compound.
Incoming: Which T/C reading was recorded for the compound CCOC(=O)c1csc(-c2csc(CCNC(=O)c3ccccc3)n2)n1 ?
Outgoing: 102 % of control
